# Assay method text: recombinant UMI read abundance after kanamycin selection (control-corrected) (log10(CPM+1)); higher = more efficient recombination; extreme values may be limits of the assay; sequences stand for … in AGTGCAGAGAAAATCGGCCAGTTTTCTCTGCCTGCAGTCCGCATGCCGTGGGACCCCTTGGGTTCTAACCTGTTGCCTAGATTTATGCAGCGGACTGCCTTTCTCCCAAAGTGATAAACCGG…AGGTTGGTTTCACT; site = the 11-nt donor;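 further: IS621 bridge recombinase in Escherichia coli cells against a fixed T5 target plasmid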
// reported recombinant UMI read abundance (log10) per item
Provide a numeric answer; units are not to be included.

Q: Given the entry GGGACTACATGGACCGGTTTTCCCGGTAATCCGTATTTGAC (site CGGACTACTGT) , report its measured recombinant UMI read abundance (log10).
A: 0

Q: Any idea what its recombinant UMI read abundance (log10) is? The sequence is GTGCATGCATGGACCGGTTTTCCCGGTAATCCGTATTTGGT (site GTGCATGCTAC)
A: 0.978

Q: Any idea what recombinant UMI read abundance (log10) was measured for CGATTAGCATGGACCGGTTTTCCCGGTAATCCGTATTTGCT (site CGATCATCTAG) ?
A: 0

Q: Which recombinant UMI read abundance (log10) is listed for GGGAATCCATGGACCGGTTTTCCCGGTAATCCGTATTTGTT (site CGGAATCCTAA) ?
A: 0

Q: Recorded recombinant UMI read abundance (log10) for GCCACTCCATGGACCGGTTTTCCCGGTAATCCGTATTTGTA (site GCCACTCCTTA) , please?
A: 1.35

New cases:
Q: Need recombinant UMI read abundance (log10) of GTTGCTCCATGGACCGGTTTTCCCGGTAATCCGTATTTGGT (site GTTGCTCCTAC) , thanks.
A: 0.00908

Q: Query (sequence): TATTCGGCATGGACCGGTTTTCCCGGTAATCCGTATTTGTG (site TATTAGGCTCA) ; field requested: recombinant UMI read abundance (log10)
A: 0.0202

Q: What does the data say about its recombinant UMI read abundance (log10)? Entry: AGCCAAGCATGGACCGGTTTTCCCGGTAATCCGTATTTGTT (site AGCCCAGCTAA)
A: 0.0145

Q: Endpoint output: recombinant UMI read abundance (log10) of CTGCTACCATGGACCGGTTTTCCCGGTAATCCGTATTTGCT (site CTGCTAACTAG) . Value?
A: 0.00893

Q: Report recombinant UMI read abundance (log10) for CAGTCGGCATGGACCGGTTTTCCCGGTAATCCGTATTTGGG (site CAGTCGGCTCC) please.
A: 0.157

Q: Returns the measured recombinant UMI read abundance (log10) for the input sequence. Input: ACACATCCATGGACCGGTTTTCCCGGTAATCCGTATTTGAC (site ACACATTCTGT)
A: 0.87

Q: recombinant UMI read abundance (log10) for TAAGTATCATGGACCGGTTTTCCCGGTAATCCGTATTTGAC (site CTAGTATCTGT) ?
A: 1.88

Q: Item CCAGTATCATGGACCGGTTTTCCCGGTAATCCGTATTTGAC (site CAAGTATCTGT) has what recorded recombinant UMI read abundance (log10)?
A: 0.983

Q: Which recombinant UMI read abundance (log10) reading was recorded for the sequence GGTACACCATGGACCGGTTTTCCCGGTAATCCGTATTTGAC (site CGTACACCTGT) ?
A: 0

Q: Would you mind telling me what recombinant UMI read abundance (log10) value was observed for TTGATTACATGGACCGGTTTTCCCGGTAATCCGTATTTGGC (site TTGATTACTGC) ?
A: 0

Q: State the recorded recombinant UMI read abundance (log10) for this entry: GTTCTCCCATGGACCGGTTTTCCCGGTAATCCGTATTTGCG (site GTTCTCCCTCG)
A: 0.002

Q: Which recombinant UMI read abundance (log10) is reported for this sequence? GAATTGCCATGGACCGGTTTTCCCGGTAATCCGTATTTGCA (site GAATTGCCTTG)
A: 0

Q: Entry under review: CTCCTAACATGGACCGGTTTTCCCGGTAATCCGTATTTGGA (site CTACTAACTTC) . Reported recombinant UMI read abundance (log10)?
A: 0.00356
